# system: Golgi-associated PDZ and coiled-coil motif-containing protein (Homo sapiens, UniProt Q9HD26)
Parameter: Kd. Scope: all listed entries.
Field format: number, assumed nM, no unit text.

structureSmilesString	Kd [nM]
C[C@@H](O)[C@H](NC(=O)[C@@H](NC(=O)[C@@H](NC(=O)[C@H](Cc1csc2ccccc12)NC(=O)[C@H](Cc1ccc2ccccc2c1)NC(=O)[C@H](CCCNC(=N)N)NC(=O)[C@H](CCCNC(=N)N)NC(=O)[C@@H](CCCNC(=N)N)NC(=O)[C@H](CS)NC(=O)COCCOCCNC(=O)c1ccc2c(c1)C(=O)OC21c2ccc(O)cc2Oc2cc(O)ccc21)C(C)(C)S)C(C)(C)C)C(=O)N[C@@H](CCCNC(=N)N)C(=O)N[C@H](C(=O)O)C(C)(C)C	49

Please list Kd recorded for the molecule C[C@@H](O)[C@H](NC(=O)[C@@H](NC(=O)[C@@H]1CCCCN1C(=O)[C@H](Cc1csc2ccccc12)NC(=O)[C@H](Cc1ccc2ccccc2c1)NC(=O)[C@H](CCCNC(=N)N)NC(=O)[C@H](CCCNC(=N)N)NC(=O)[C@@H](CCCNC(=N)N)NC(=O)[C@H](CS)NC(=O)COCCOCCNC(=S)Nc1ccc2c(c1)C(=O)OC21c2ccc(O)cc2Oc2cc(O)ccc21)C(C)(C)S)C(=O)N[C@@H](CCCNC(=N)N)C(=O)N[C@H](C(=O)O)C(C)(C)C
6

Please list Kd recorded for the molecule C[C@@H](O)[C@H](NC(=O)[C@@H](NC(=O)[C@@H]1CCCN1C(=O)[C@H](Cc1csc2ccccc12)NC(=O)[C@H](Cc1ccc2ccccc2c1)NC(=O)[C@H](CCCNC(=N)N)NC(=O)[C@H](CCCNC(=N)N)NC(=O)[C@@H](CCCNC(=N)N)NC(=O)[C@H](CS)NC(=O)COCCOCCNC(=S)Nc1ccc2c(c1)C(=O)OC21c2ccc(O)cc2Oc2cc(O)ccc21)C(C)(C)S)C(=O)N[C@@H](CCCNC(=N)N)C(=O)N[C@H](C(=O)O)C(C)(C)C
87

Please list Kd recorded for the molecule C[C@@H](O)[C@H](NC(=O)[C@@H](NC(=O)[C@H](CCC(N)=O)NC(=O)[C@H](Cc1c[nH]c2ccccc12)NC(=O)[C@H](Cc1ccc2ccccc2c1)NC(=O)[C@H](CCCNC(=N)N)NC(=O)[C@H](CCCNC(=N)N)NC(=O)[C@@H](CCCNC(=N)N)NC(=O)[C@H](CS)NC(=O)CCNC(=S)Nc1ccc(-c2c3ccc(=O)cc-3oc3cc(O)ccc23)c(C(=O)O)c1)C(C)(C)S)C(=O)N[C@@H](CCCNC(=N)N)C(=O)N[C@H](C(=O)O)C(C)(C)C
113

----------
Parameter: IC50. Scope: all listed entries.
# system: UniProtKB Q9HD26
# methodDescription: Binding affinity to C-terminal His6 tagged CAL PDZ domain (unknown origin) expressed in Escherichia coli BL21 incubated for 1 hr using FAM-22 probe by fluorescence polarization based competition assay
Non-standard residues stand in square brackets, D forms with d. Residues, ends and D or L forms follow the SMILES beside them. 2Nal = N[C@@H](Cc1ccc2ccccc2c1)C(=O)O; Bta = N[C@@H](Cc1csc2ccccc12)C(=O)O; Pen = CC(C)(S)[C@H](N)C(=O)O; Tle = CC(C)(C)[C@H](N)C(=O)O; Pip = O=C(O)[C@@H]1CCCCN1
// return the numeric value with its unit appended

compound	IC50
CC(=O)N[C@@H](CS)C(=O)N[C@H](CCCNC(=N)N)C(=O)N[C@@H](CCCNC(=N)N)C(=O)N[C@@H](CCCNC(=N)N)C(=O)N[C@@H](Cc1ccc2ccccc2c1)C(=O)N[C@@H](Cc1c[nH]c2ccccc12)C(=O)N[C@@H](CCC(N)=O)C(=O)N[C@H](C(=O)N[C@H](C(=O)N[C@@H](CCCNC(=N)N)C(=O)N[C@H](C(=O)O)C(C)(C)C)[C@@H](C)O)C(C)(C)S (Ac-C[dR]RR[2Nal]WQ[Pen]TR[Tle]-OH)	170 nM
CC(=O)N[C@@H](CS)C(=O)N[C@@H](CCCNC(=N)N)C(=O)N[C@@H](CCCNC(=N)N)C(=O)N[C@@H](CCCNC(=N)N)C(=O)N[C@@H](Cc1ccc2ccccc2c1)C(=O)N[C@@H](Cc1c[nH]c2ccccc12)C(=O)N[C@@H](CCC(N)=O)C(=O)N[C@H](C(=O)N[C@H](C(=O)N[C@@H](CCCNC(=N)N)C(=O)N[C@H](C(=O)O)C(C)(C)C)[C@@H](C)O)C(C)(C)S (Ac-CRRR[2Nal]WQ[Pen]TR[Tle]-OH)	150 nM

// below: IC50 requested for another compound
Please list IC50 recorded for the compound CC(=O)N[C@@H](CS)C(=O)N[C@H](CCCNC(=N)N)C(=O)N[C@@H](CCCNC(=N)N)C(=O)N[C@@H](CCCNC(=N)N)C(=O)N[C@@H](Cc1ccc2ccccc2c1)C(=O)N[C@@H](Cc1csc2ccccc12)C(=O)N1CCCC[C@H]1C(=O)N[C@H](C(=O)N[C@H](C(=O)N[C@@H](CCCNC(=N)N)C(=O)N[C@H](C(=O)O)C(C)(C)C)[C@@H](C)O)C(C)(C)S (Ac-C[dR]RR[2Nal][Bta][Pip][Pen]TR[Tle]-OH)
20 nM

----------
# methodDescription: Drug uptake in human HeLa cells at 5 uM incubated for 2 hrs by flow cytometry relative to CPP9
# Format: ADME, cell-based
Non-standard residues stand in square brackets, D forms with d. Residues, ends and D or L forms follow the SMILES beside them. 2Nal = N[C@@H](Cc1ccc2ccccc2c1)C(=O)O; Bta = N[C@@H](Cc1csc2ccccc12)C(=O)O; Pen = CC(C)(S)[C@H](N)C(=O)O; Tle = CC(C)(C)[C@H](N)C(=O)O; Pip = O=C(O)[C@@H]1CCCCN1
assayReadout: Drug uptake (%)
Field format: number, assumed %, no unit text.

Please list Drug uptake recorded for the compound CC(=O)N[C@@H](CS)C(=O)N[C@H](CCCNC(=N)N)C(=O)N[C@@H](CCCNC(=N)N)C(=O)N[C@@H](CCCNC(=N)N)C(=O)N[C@@H](Cc1ccc2ccccc2c1)C(=O)N[C@@H](Cc1csc2ccccc12)C(=O)N1CCC[C@H]1C(=O)N[C@H](C(=O)N[C@H](C(=O)N[C@@H](CCCNC(=N)N)C(=O)N[C@H](C(=O)O)C(C)(C)C)[C@@H](C)O)C(C)(C)S (Ac-C[dR]RR[2Nal][Bta]P[Pen]TR[Tle]-OH)
36

Please list Drug uptake recorded for the compound CC(=O)N[C@@H](CS)C(=O)N[C@H](CCCNC(=N)N)C(=O)N[C@@H](CCCNC(=N)N)C(=O)N[C@@H](CCCNC(=N)N)C(=O)N[C@@H](Cc1ccc2ccccc2c1)C(=O)N[C@@H](Cc1csc2ccccc12)C(=O)N1CCCC[C@H]1C(=O)N[C@H](C(=O)N[C@H](C(=O)N[C@@H](CCCNC(=N)N)C(=O)N[C@H](C(=O)O)C(C)(C)C)[C@@H](C)O)C(C)(C)S (Ac-C[dR]RR[2Nal][Bta][Pip][Pen]TR[Tle]-OH)
61

Please list Drug uptake recorded for the compound CC(=O)N[C@@H](CS)C(=O)N[C@H](CCCNC(=N)N)C(=O)N[C@@H](CCCNC(=N)N)C(=O)N[C@@H](CCCNC(=N)N)C(=O)N[C@@H](Cc1ccc2ccccc2c1)C(=O)N[C@@H](Cc1c[nH]c2ccccc12)C(=O)N[C@H](C(=O)N[C@H](C(=O)N[C@H](C(=O)N[C@@H](CCCNC(=N)N)C(=O)N[C@H](C(=O)O)C(C)(C)C)[C@@H](C)O)C(C)(C)C)C(C)(C)S (Ac-C[dR]RR[2Nal]W[Pen][Tle]TR[Tle]-OH)
92

Please list Drug uptake recorded for the compound CC(=O)N[C@@H](CS)C(=O)N[C@H](CCCNC(=N)N)C(=O)N[C@@H](CCCNC(=N)N)C(=O)N[C@@H](CCCNC(=N)N)C(=O)N[C@@H](Cc1ccc2ccccc2c1)C(=O)N[C@@H](Cc1csc2ccccc12)C(=O)N[C@H](C(=O)N[C@H](C(=O)N[C@H](C(=O)N[C@@H](CCCNC(=N)N)C(=O)N[C@H](C(=O)O)C(C)(C)C)[C@@H](C)O)C(C)(C)C)C(C)(C)S (Ac-C[dR]RR[2Nal][Bta][Pen][Tle]TR[Tle]-OH)
518

Please list Drug uptake recorded for the compound CC(=O)N[C@@H](CS)C(=O)N[C@H](CCCNC(=N)N)C(=O)N[C@@H](CCCNC(=N)N)C(=O)N[C@@H](CCCNC(=N)N)C(=O)N[C@@H](Cc1ccc2ccccc2c1)C(=O)N[C@@H](Cc1c[nH]c2ccccc12)C(=O)N[C@@H](CCC(N)=O)C(=O)N[C@H](C(=O)N[C@H](C(=O)N[C@@H](CCCNC(=N)N)C(=O)N[C@H](C(=O)O)C(C)(C)C)[C@@H](C)O)C(C)(C)S (Ac-C[dR]RR[2Nal]WQ[Pen]TR[Tle]-OH)
28

Please list Drug uptake recorded for the compound CC(=O)N[C@@H](CS)C(=O)N[C@@H](CCCNC(=N)N)C(=O)N[C@H](CCCNC(=N)N)C(=O)N[C@@H](CCCNC(=N)N)C(=O)N[C@@H](Cc1ccc2ccccc2c1)C(=O)N[C@@H](Cc1c[nH]c2ccccc12)C(=O)N[C@@H](CCC(N)=O)C(=O)N[C@H](C(=O)N[C@H](C(=O)N[C@@H](CCCNC(=N)N)C(=O)N[C@H](C(=O)O)C(C)(C)C)[C@@H](C)O)C(C)(C)S (Ac-CR[dR]R[2Nal]WQ[Pen]TR[Tle]-OH)
17
